tested on: LOX IMVI melanoma; experiment: NCI-60 one-dose screen, 48 h (100 = growth as untreated, 0 = no growth, -100 = all killed); conditions: 10 µM unless noted
This is part of a sample that, as a whole, favours compounds with a hit. Of some 83,000 tested, about 20% had one in any assay.
Binary classification by growth, with 90% as an inclusive lower bound for true; all other cases are false.

{"columns": ["MOLECULE", "GROUP_LABEL"],
 "data": [
  ["COc1ccccc1CNCCCN1C(=O)c2ccc3c4c(ccc(c24)C1=O)C(=O)N(CCCNCCCCN)C3=O", "false"],
  ["N#Cc1c2c(nn(-c3ccccc3)c1=O)C(O)=C([N+](=O)[O-])C(c1ccccc1)C2 (stereo not given)", "false"],
  ["COc1ccc2[nH]c(O)c(C(=Nc3ccc(N(C)C(=O)CN4CCN(C)CC4)cc3)c3ccccc3)c2c1", "false"],
  ["CC1(c2ccccc2)NC(=O)N(NC(=O)CSc2nc(-c3cccs3)nc3ccccc23)C1=O (stereo not given)", "true"],
  ["Cc1ccc(NS(=O)(=O)c2ccc3c(c2)C2OCCC2C(c2ccc(C(=O)C(C)C)cc2)N3)cc1C (stereo not given)", "false"]
]}

Input line: hey, is growth for this one >= 90%? c1ccc2c(c1)nc(CN1CCOCC1)n1cc(N3CCCC3)nc21
Output line: true

Input line: Could you please find out whether CCCCN(CCCC)CC(C)(C)C(O)c1ccc(OC)c2ccccc12 (stereo not given) has growth that meets 90% or exceeds it?
Output line: false

Input line: Given the entry O=C(Nc1cccc2c(O)c(N=Nc3ccc(S(=O)(=O)Nc4nccs4)cc3)cc(N=Nc3ccc(S(=O)(=O)Nc4nccs4)cc3)c12)C(Cl)Cl , answer whether its growth meets or surpasses 90%.
Output line: false

Input line: Check if growth >= 90% (inclusive). Item: CC1=NOC(=O)/C1=C\c1ccc(O)cc1
Output line: true

Input line: Quick check, growth >= 90%? CN(c1ccccc1)c1ccc2c(c1)OCCC21CC1Nc1cnccc1C(=O)O (stereo not given)
Output line: false

----------
system: SK-MEL-2 melanoma; experiment: NCI-60 one-dose screen, 48 h (100 = growth as untreated, 0 = no growth, -100 = all killed); settings: 10 µM unless noted
About 83,000 compounds went through this panel and 20% of them were active in at least one assay; those are over-represented in the sample as a whole.
growth values, listed per item
Give your result in % as a bare value.

Some solved entries appear below for comparison.
{"columns": ["COMPOUND", "growth (%)"],
 "data": [
  ["CCc1c2c(nc3ccc(OC(=O)NCc4ccc(B5OC(C)(C)C(C)(C)O5)cc4)cc13)-c1cc3c(c(=O)n1C2)COC(=O)[C@]3(O)CC", -28],
  ["COc1cccc(-c2nn(-c3ccccc3)cc2-c2ccnc(NCCNC(=O)Nc3ccccc3)c2)c1", 46.8],
  ["CCOC(CN=Cc1cc(C)c2[nH]c3ccccc3c2c1C)OCC", 91.4],
  ["COc1cc(-c2nn(-c3ccccc3)cc2-c2ccnc(NCCNS(=O)(=O)c3ccc(Cl)cc3)n2)ccc1Cl", 61.2],
  ["CC1(C)CC[C@]2(C(=O)N3CCOCC3)CC[C@]3(C)C(=CC[C@@H]4[C@@]5(C)CC[C@H](OC(=O)c6cccnc6)C(C)(C)[C@@H]5CC[C@]43C)[C@@H]2C1", 84.4],
  ["COc1ccc(C2CC(c3cccc(OC)c3)=NN2C(=O)c2cc(OC)c(OC)c(OC)c2)cc1 (stereo not drawn)", 35.9],
  ["CC(=O)c1ccc(NCC(=O)Nc2ccccn2)cc1", 105]
]}

Next compound, growth to be filled in.
Input line: Tell me its growth on SK-MEL-2 melanoma: COc1ccc(C(=O)COc2ccc(/C=C3\Oc4ccccc4C3=O)cc2)cc1
Output line: 103

----------
system: NCI-H226 lung; test: NCI-60 one-dose screen, 48 h (100 = growth as untreated, 0 = no growth, -100 = all killed); settings: 10 µM unless noted
This is part of a sample that, as a whole, favours compounds with a hit. Of some 83,000 tested, about 20% had one in any assay.
Simple rule here: growth less than 70% is 1, otherwise 0.

{"columns": ["COMPOUND", "TARGET_ENTITY", "GROUP_LABEL"],
 "data": [
  ["O=C(NCCCNc1cc(-c2cn(-c3ccccc3)nc2-c2cccc(O)c2)ccn1)c1cccc(O)c1", "NCI-H226 lung", 0],
  ["CC1=C([Se]CC(OC(=O)[C@@H](CO)NC(=O)OC(C)(C)C)C(=O)NC(C)(C)C)C(=O)c2ccccc2C1=O (stereo partly drawn)", "NCI-H226 lung", 1],
  ["O=c1c2cc(F)ccc2sc2c(NCCN3CCCCC3)nc3ccccc3c12", "NCI-H226 lung", 0],
  ["Cn1c(-c2c(N)n(Cc3ccc(C(F)(F)F)cc3)c3nc(C#N)c(C#N)nc23)nc2ccccc21", "NCI-H226 lung", 1],
  ["O=C(Nc1ccccc1-c1nc2ccccc2c(=O)[nH]1)c1cc2ccccc2[nH]1", "NCI-H226 lung", 0],
  ["COC(=O)[C@]12CC[C@@H](C)[C@H](C)[C@@H]1C1=CC[C@@H]3[C@@]4(C)C(C=O)=C[C@@](C)(COC(=O)/C=C/c5ccccc5)[C@@H]4[C@H](O)C[C@@]3(C)[C@]1(C)CC2", "NCI-H226 lung", 1],
  ["COc1ccc2[nH]c(O)c(C(=Nc3ccc(N(C)C(=O)CN4CCN(C)CC4)cc3)c3ccccc3)c2c1", "NCI-H226 lung", 1],
  ["Cc1cc(C)c(-c2c(C)cc(C)cc2CBr)c(CBr)c1", "NCI-H226 lung", 0]
]}

Input line: Strictly below 70%: is that where growth of O=c1c2c3c(sc2n2c(-c4cn(-c5ccccc5)nc4-c4ccc(Cl)cc4)nnc2n1Cc1ccccc1)CCCC3 sits?
Output line: 0

Input line: Hello, I'm reviewing records and need to know if growth of CCN(CC)c1ccc(C(=O)c2ccc(N(CC)CC)cc2)cc1 is below 70%. Could you check?
Output line: 1

----------
tested on: SF-295 CNS; experiment: NCI-60 one-dose screen, 48 h; settings: 10 µM unless noted
The panel holds about 83,000 compounds, 20% with a hit somewhere; the sample as a whole holds those more often. Active and inactive are the calls of the source. Rule for the calls: active = growth percent below 10; inactive = the rest.
Bench note: report the call from active, inactive

Here's what some known entries look like.
{"columns": ["COMPOUND_STRING", "GROUP_LABEL"],
 "data": [
  ["N#Cc1c(N)nn(C(=O)c2ccc(NC(=O)c3ccccn3)cc2)c1-c1ccc(Cl)cc1", "inactive"],
  ["O=C(N=c1oc2ccccc2cc1-c1cc2ccccc2[nH]1)c1ccc(Cl)cc1", "inactive"],
  ["c1coc(-c2c3ccc(=[N+]4CCCCC4)cc-3oc3cc(N4CCCCC4)ccc23)c1", "active"]
]}

Input line: Which outcome was entered for the molecule COc1cc2ncn3c(=O)c4c5c(sc4nc3c2cc1OC)CCCC5 in this test?
Output line: inactive

Input line: Look up the recorded call for CCCCNC(=O)Oc1ccc2c(=O)c3sc4c(=O)c5ccccc5c(=O)c4c3c(=O)c2c1 in this test.
Output line: active

Input line: Hello, I am checking results. What call was entered for O=C(COc1ccc(/C=C2\Oc3ccccc3C2=O)cc1)Nc1nc2ccccc2s1 ?
Output line: inactive

Input line: # fetch the recorded call for COC1=CC(=O)C[C@@H](C)[C@]12Oc1c(Cl)c(OC)cc(OC)c1C2=O here
Output line: inactive

Input line: Hi team, can someone confirm the assay call for O=C(NCCCNc1cc(-c2cn(-c3ccccc3)nc2-c2cccc(O)c2)ccn1)c1cccc(O)c1 ?
Output line: inactive

Input line: Could you kindly confirm the outcome this assay logged for COC(=O)[C@H](CSC)N(C)C(=O)[C@@H]1CSSC[C@@H](NC(=O)c2nc3ccccc3cc2O)C(=O)NCC(=O)N1C ?
Output line: inactive

Input line: Please indicate how the test categorized O=C(NCCc1ccc(O)c(O)c1)C12CC3CC(CC(C3)C1)C2 .
Output line: inactive

----------
test system: SK-MEL-28 melanoma; experiment: NCI-60 one-dose screen, 48 h (100 = growth as untreated, 0 = no growth, -100 = all killed); conditions: 10 µM unless noted
The panel holds about 83,000 compounds, 20% with a hit somewhere; the sample as a whole holds those more often.
Measured growth, listed per entry for reference.
The answer is to be given in %; state only the numeric part.

{"columns": ["COMPOUND", "TARGET_ENTITY", "PROPERTY", "EXPERIMENTAL_VALUE"],
 "data": [
  ["O=c1[nH]c2ccccc2n1C1CCN(CCOc2ccccc2)CC1", "SK-MEL-28 melanoma", "growth", 102],
  ["CCCCNC(=O)Oc1ccc2c(=O)c3sc4c(=O)c5ccccc5c(=O)c4c3c(=O)c2c1", "SK-MEL-28 melanoma", "growth", -73.3],
  ["COc1cc(N=Nc2ccc(N)cc2)c(OC)cc1N=Nc1ccccc1.[Cl][Zn][Cl]", "SK-MEL-28 melanoma", "growth", 109]
]}

Input line: // Input: Cc1ccc(S(=O)(=O)NCC[C@@H]2C[C@H]2c2cc3ccccc3s2)cc1 . Output its growth only.
Output line: 105

Input line: Quickly give me recorded growth for COc1cc(C(=O)/C=C/c2c(C(F)(F)F)nc3sccn23)cc(OC)c1OC
Output line: -18.4

Input line: For COc1ccc(Cl)cc1NC(=O)C(Br)C(Br)C(=O)O (stereo not given) , write its growth.
Output line: 60.1

Input line: # return recorded growth for input CCN(CC)CCn1nc2c3c(cccc3c1=O)-c1ccccc1-2
Output line: 37.1

Input line: Give me measured growth, please, for this compound: CC(C)Sc1nc(NNC(N)=S)c(C#N)c(-c2ccc(F)cc2)n1
Output line: 113

Input line: For the compound CC1=C([Se]CC(OC(=O)[C@@H](CO)NC(=O)OC(C)(C)C)C(=O)NC(C)(C)C)C(=O)c2ccccc2C1=O (stereo not given in full) , report growth.
Output line: -100

Input line: Supply recorded growth for CCN1C(=O)N(CC)C2Nn3c(s/c(=C\c4ccc(Cl)cc4Cl)c3=O)=NC21 (stereo not given) here.
Output line: 45.2

Hey, just so you know, these numbers are from PubChem BioAssay (NCI).
